Where do these numbers come from? They come from patent US12286428B2.

- targetOrTestSystem: UniProt:Q9NWZ3
- Sequence (Q9NWZ3 whole entry): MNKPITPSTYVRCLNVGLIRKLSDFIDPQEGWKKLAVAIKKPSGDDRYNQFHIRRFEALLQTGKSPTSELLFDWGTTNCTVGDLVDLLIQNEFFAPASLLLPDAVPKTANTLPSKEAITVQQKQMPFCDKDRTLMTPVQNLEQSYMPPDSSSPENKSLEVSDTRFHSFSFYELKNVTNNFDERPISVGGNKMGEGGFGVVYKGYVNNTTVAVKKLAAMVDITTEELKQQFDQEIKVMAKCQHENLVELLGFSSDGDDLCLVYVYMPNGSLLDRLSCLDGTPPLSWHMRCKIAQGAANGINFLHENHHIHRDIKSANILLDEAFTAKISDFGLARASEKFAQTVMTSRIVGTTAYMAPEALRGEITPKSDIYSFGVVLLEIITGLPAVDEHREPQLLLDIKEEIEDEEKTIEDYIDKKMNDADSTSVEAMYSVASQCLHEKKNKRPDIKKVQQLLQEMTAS
- method: IRAK4 Inhibition Assay
- Assay type: biochemical
- testConditions: ATP 500 μM; FL-IPTSPITTTYFFFKKK peptide […]; IRAK4 0.6 nM; 60 min room temperature; Caliper LABCHIP 3000
- Procedure: The assays were performed in U-bottom 384-well plates. […] The reaction was initiated by the combination of IRAK4 with substrates and test compounds. The reaction mixture was incubated at room temperature for 60 min. and terminated by adding 45 μL of 35 mM EDTA to each sample. The reaction mixture was analyzed on the Caliper LABCHIP® 3000 (Caliper, Hopkinton, MA) by electrophoretic separation of the fluorescent substrate and phosphorylated product. […]
pIC50: −log10 of the molar value.
quantity: pIC50

Examples with answers:
{"compound": "CC[C@@H]1CC(=O)N[C@@H]1COC1=C(F)C=CC2C=C(C(N)=O)c3nccn3C12 (stereo partly drawn)", "pIC50": 6.95}
{"compound": "CC[C@@H]1[C@H](F)C(=O)N[C@@H]1COC1=CC=CC2C=C(C(N)=O)n3nc(C)cc3C12 (stereo partly drawn)", "pIC50": 8.64}
{"compound": "CC[C@@H]1CC(=O)N[C@@H]1COc1nc(C)cc2cc(C(N)=O)c3nccn3c12", "pIC50": 6.65}

(I) CC[C@@H]1CC(=O)N[C@@H]1COc1nccc2cc(C(N)=O)c3c(c12)CCO3
(II) CC[C@@H]1[C@H](F)C(=O)N[C@@H]1COc1cccc2cc(C(N)=O)c3nc(C)cn3c12
Request: Short answer wanted: higher pIC50, I or II ? Label of pick, please.
Response: II
(II: 8.66, I: 7.87)
